Values from paper PMC10397247

Biological target: T1, 4H2698-AA
T1 chain: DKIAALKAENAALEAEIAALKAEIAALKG
Assay: two-hybrid library CCmax;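 note: natural log of median RNA to DNA barcode read ratio; higher means stronger binding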
Settings: mean of both orientations
Kindly return Y if reported interaction score is no lower than -1; return N if it is lower.

{"binder": "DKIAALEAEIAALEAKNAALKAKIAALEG [4H2109-AA]", "label-class": "Y"}
{"binder": "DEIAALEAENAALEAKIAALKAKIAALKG [4H174-AA]", "label-class": "Y"}
{"binder": "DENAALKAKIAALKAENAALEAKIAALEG [4H1877-AA]", "label-class": "N"}
{"binder": "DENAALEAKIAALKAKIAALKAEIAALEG [4H1385-AA]", "label-class": "Y"}
{"binder": "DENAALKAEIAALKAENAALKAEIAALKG [4H1626-AA]", "label-class": "N"}
{"binder": "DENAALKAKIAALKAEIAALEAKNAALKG [4H1864-AA]", "label-class": "Y"}
